Target: IRAK4 kinase (Homo sapiens)
Sequence (Q9NWZ3 1-460): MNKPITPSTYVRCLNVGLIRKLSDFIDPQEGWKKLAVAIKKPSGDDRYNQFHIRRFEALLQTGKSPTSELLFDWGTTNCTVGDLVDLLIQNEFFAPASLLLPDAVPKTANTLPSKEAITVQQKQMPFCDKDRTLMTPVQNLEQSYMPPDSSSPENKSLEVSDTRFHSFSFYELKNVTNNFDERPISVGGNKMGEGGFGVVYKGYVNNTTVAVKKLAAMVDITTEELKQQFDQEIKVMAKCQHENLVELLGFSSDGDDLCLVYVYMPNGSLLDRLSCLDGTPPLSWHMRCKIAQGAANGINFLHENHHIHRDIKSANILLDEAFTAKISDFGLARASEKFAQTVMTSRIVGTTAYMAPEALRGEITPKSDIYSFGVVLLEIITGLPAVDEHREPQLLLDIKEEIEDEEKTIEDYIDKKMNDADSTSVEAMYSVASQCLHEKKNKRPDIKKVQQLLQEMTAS
reported property: pIC50
Numbers only, as −log10 of the molar value.

Please report the recorded pIC50 for COc1cc2nn(C3CC4(CCN(C(=O)C5CCN(c6ccc7c(c6)C(=O)N(C6CCC(=O)NC6=O)C7=O)CC5)CC4)C3)cc2cc1NC(=O)c1cccc(C(F)(F)F)n1 (stereo not shown) [X] .
7.59

###

experiment: Solubility of crystal forms in buffers, biorelevant media and water (HPLC, XRPD of residual solid); type: physicochemical; details: fassif; 37°C; 24 h; read-out: Solubility at 37°C (mg/mL) 24 h
reported property: solubility at 24 h (mg/mL)
Answers are plain numbers, in mg/mL.

Please report the recorded solubility at 24 h for COc1cc2nn(C3CC4(CCN(C(=O)C5CCN(c6ccc7c(c6)C(=O)N(C6CCC(=O)NC6=O)C7=O)CC5)CC4)C3)cc2cc1NC(=O)c1cccc(C(F)(F)F)n1 (single isomer, unassigned) [crystal form I] .
0.00148

###

test: Solubility of crystal forms in buffers, biorelevant media and water (HPLC, XRPD of residual solid); format: physicochemical; conditions: buffer, pH 7.4, pH 7.4 buffer; 37°C; 2 h; read-out: Solubility at 37°C (mg/mL) 2 h
reported property: solubility at 2 h (mg/mL)
One number for each entry, in mg/mL.

Please report the recorded solubility at 2 h for COc1cc2nn(C3CC4(CCN(C(=O)C5CCN(c6ccc7c(c6)C(=O)N(C6CCC(=O)NC6=O)C7=O)CC5)CC4)C3)cc2cc1NC(=O)c1cccc(C(F)(F)F)n1 (single isomer, unassigned) [crystal form I] .
0.00101

###

test: Solubility of crystal forms in buffers, biorelevant media and water (HPLC, XRPD of residual solid); assay type: physicochemical; conditions: buffer, pH 1.2, pH 1.2 buffer; 37°C; 24 h; read-out: Solubility at 37°C (mg/mL) 24 h
reported property: solubility at 24 h
Note: state the figure and append the unit.

Please report the recorded solubility at 24 h for COc1cc2nn(C3CC4(CCN(C(=O)C5CCN(c6ccc7c(c6)C(=O)N(C6CCC(=O)NC6=O)C7=O)CC5)CC4)C3)cc2cc1NC(=O)c1cccc(C(F)(F)F)n1 (single isomer, unassigned) [crystal form I] .
0.00081 mg/mL

###

assay: Solubility of crystal forms in buffers, biorelevant media and water (HPLC, XRPD of residual solid); type: physicochemical; conditions: fessif; 37°C; 2 h; read-out: Solubility at 37°C (mg/mL) 2 h
reported property: solubility at 2 h (mg/mL)
Give bare numbers, in mg/mL.

Please report the recorded solubility at 2 h for COc1cc2nn(C3CC4(CCN(C(=O)C5CCN(c6ccc7c(c6)C(=O)N(C6CCC(=O)NC6=O)C7=O)CC5)CC4)C3)cc2cc1NC(=O)c1cccc(C(F)(F)F)n1 (single isomer, unassigned) [crystal form I] .
0.004

###

assay: Solubility of crystal forms in buffers, biorelevant media and water (HPLC, XRPD of residual solid); format: physicochemical; details: buffer, pH 6.8, pH 6.8 buffer; 37°C; 24 h; read-out: Solubility at 37°C (mg/mL) 24 h
reported property: solubility at 24 h
Note: state the figure and append the unit.

Please report the recorded solubility at 24 h for COc1cc2nn(C3CC4(CCN(C(=O)C5CCN(c6ccc7c(c6)C(=O)N(C6CCC(=O)NC6=O)C7=O)CC5)CC4)C3)cc2cc1NC(=O)c1cccc(C(F)(F)F)n1 (single isomer, unassigned) [crystal form I] .
0.00084 mg/mL

###

assay: Solubility of crystal forms in buffers, biorelevant media and water (HPLC, XRPD of residual solid); format: physicochemical; conditions: sgf; 37°C; 2 h; read-out: Solubility at 37°C (mg/mL) 2 h
reported property: solubility at 2 h (mg/mL)
Give bare numbers, in mg/mL.

Please report the recorded solubility at 2 h for COc1cc2nn(C3CC4(CCN(C(=O)C5CCN(c6ccc7c(c6)C(=O)N(C6CCC(=O)NC6=O)C7=O)CC5)CC4)C3)cc2cc1NC(=O)c1cccc(C(F)(F)F)n1 (single isomer, unassigned) [crystal form I] .
0.00158

###

assay: Solubility of crystal forms in buffers, biorelevant media and water (HPLC, XRPD of residual solid); type: physicochemical; settings: water; 37°C; 2 h; read-out: Solubility at 37°C (mg/mL) 2 h
reported property: solubility at 2 h (mg/mL)
Numbers only, in mg/mL.

Please report the recorded solubility at 2 h for COc1cc2nn(C3CC4(CCN(C(=O)C5CCN(c6ccc7c(c6)C(=O)N(C6CCC(=O)NC6=O)C7=O)CC5)CC4)C3)cc2cc1NC(=O)c1cccc(C(F)(F)F)n1 (single isomer, unassigned) [crystal form A] .
0.00052

###

assay: Solubility of crystal forms in buffers, biorelevant media and water (HPLC, XRPD of residual solid); type: physicochemical; conditions: buffer, pH 1.2, pH 1.2 buffer; 37°C; 2 h; read-out: Solubility at 37°C (mg/mL) 2 h
reported property: solubility at 2 h
Note: state the figure and append the unit.

Please report the recorded solubility at 2 h for COc1cc2nn(C3CC4(CCN(C(=O)C5CCN(c6ccc7c(c6)C(=O)N(C6CCC(=O)NC6=O)C7=O)CC5)CC4)C3)cc2cc1NC(=O)c1cccc(C(F)(F)F)n1 (single isomer, unassigned) [crystal form I] .
0.00084 mg/mL

###

experiment: Solubility of crystal forms in buffers, biorelevant media and water (HPLC, XRPD of residual solid); type: physicochemical; conditions: buffer, pH 3, pH 3.0 buffer; 37°C; 24 h; read-out: Solubility at 37°C (mg/mL) 24 h
reported property: solubility at 24 h
Note: state the figure and append the unit.

Please report the recorded solubility at 24 h for COc1cc2nn(C3CC4(CCN(C(=O)C5CCN(c6ccc7c(c6)C(=O)N(C6CCC(=O)NC6=O)C7=O)CC5)CC4)C3)cc2cc1NC(=O)c1cccc(C(F)(F)F)n1 (single isomer, unassigned) [crystal form I] .
0.00077 mg/mL

Where do these numbers come from? They come from patent EP4796536A1.
